System: HOP-62 NSCLC
Assay: NCI-60 one-dose screen, 48 h (100 = growth as untreated, 0 = no growth, -100 = all killed)
Settings: 10 µM unless noted
Method: Growth inhibition of the HOP-62 human Non-Small Cell Lung tumor cell line is measured as a screen for anti-cancer activity. Cells are grown in 96 well plates and exposed to the test compound for 48 hours. Compounds are tested at a single concentration, which is 10^-5 M for most compounds. The reported endpoint is percent growth (GI% or GIPRCNT), where numbers from 0 - 100% represent growth inhibition, and numbers from -100% - 0 represent cell death. […]
This is part of a sample that, as a whole, favours compounds with a hit. Of some 83,000 tested, about 20% had one in any assay. Calls of active or inactive are those of the source. The calls were made as follows: active = growth percent below 10; inactive = the rest.
endpoint: growth

Example results:
Cc1ccccc1-c1nc(C(Cl)Cl)nc2cc(-c3ccccc3)nn12: 54.9% (inactive)
COC(=O)[C@]12CC[C@@H](C)[C@H](C)[C@@H]1C1=CC(=O)[C@@H]3[C@@]4(C)C[C@@H](O)[C@H](O)[C@@]5(C)COC(=C45)C[C@@]3(C)[C@]1(C)CC2: 50.8% (inactive)
COc1ccc(-c2nc3ncccn3c2-c2nc3ccc(Br)cc3[nH]2)cc1: 99.3% (inactive)
CCN(CC)c1ccc(/C=C/c2cc(C)c3ccccc3n2)cc1: 46.7% (inactive)
C#CCC(C)(O)/C=C/C1=C(C)CCCC1(C)C (centres undefined): 96.9% (inactive)

-- ask Looking for the measured growth of CCOc1ccc(NC(=O)c2ccoc2COc2ccccc2)cc1 , can you help?
-- reply 111% (inactive)

-- ask For Cc1cc(N(CCCNc2ccnc3cc(Cl)ccc23)Cc2ccco2)nc(N2CCN(C)CC2)n1 then?
-- reply 48.2% (inactive)

-- ask For CCC(c1ccc(OC)cc1)C(CC)c1ccc(O)c(CN2CCCCC2)c1 (centres undefined) then?
-- reply 95.5% (inactive)

-- ask For C[C@@H](C(=O)O)c1ccc2c3cc(Cl)ccc3n(Cc3cc(=O)oc4ccc(Cl)cc34)c2c1 then?
-- reply 103% (inactive)

-- ask For C=C(C)[C@@H]1CC[C@]2(c3nnc(-c4ccncc4)o3)CC[C@]3(C)[C@H](CC[C@@H]4[C@@]5(C)CCC(=O)NC(C)(C)[C@@H]5CC[C@]43C)[C@@H]12 then?
-- reply 97.9% (inactive)

-- ask For COc1cccc(-c2nn(-c3ccccc3)cc2-c2ccnc(NCCNS(=O)(=O)c3ccc(Cl)cc3)c2)c1 then?
-- reply 53.5% (inactive)

-- ask For CC[C@]12C=CCN3CC[C@@]4(c5cc([C@H]6CCC(=O)N6)c(OC)cc5N(C)[C@H]4[C@@](O)(C(=O)OC)[C@@H]1OC(C)=O)[C@@H]32 then?
-- reply 98.1% [2.5 µM] (inactive)

-- ask For COc1cccc(NC(=O)c2sc3nc4c(cc3c2N)C(=O)CCC4)c1 then?
-- reply 27.8% (inactive)

-- ask For Cc1ccsc1-c1ccc2c(c1)COC2(CCCN(C)C)c1ccc(F)cc1 (centres undefined) then?
-- reply 69.4% (inactive)

-- ask For Clc1ccc(Cn2cc(-c3nc4ccc(Br)nc4n3Cc3ccc(Cl)cc3)c3cccnc32)cc1 then?
-- reply 82.7% (inactive)

-- ask For COc1ccc2c(c1)C/C(=C\c1cc(-c3cc(OC)c(OC)c(OC)c3)n[nH]1)C2=O then?
-- reply 103% (inactive)

-- ask For Cc1ccc2oc(=O)cc(-c3sc(N4CCCCC4)nc3-c3ccccc3)c2c1 then?
-- reply 89.7% (inactive)

-- ask For Cc1ccc(-c2nc3ccc(Cl)cc3c(=O)n2N2C(=O)CSC2c2ccccc2Cl)cc1 (centres undefined) then?
-- reply 2.48% (active)

-- ask For COC(=O)[C@]12CC[C@@H](C)[C@H](C)[C@@H]1C1=CC[C@@H]3[C@@]4(C)C[C@@H](O)[C@H](O)[C@@](C)(CO)C4=CC[C@@]3(C)[C@]1(C)CC2 then?
-- reply -61% (active)

-- ask For COc1cc(-c2c(C#N)c(-c3cccs3)nc3c2c(-c2ccccc2)nn3-c2ccccc2)ccc1O then?
-- reply 74.5% (inactive)

-- ask For C=C(C)[C@@H]1CC[C@]2(C(=O)O)CC[C@]3(C)[C@H](CC[C@@H]4[C@@]5(C)C/C(=C/c6cccc(I)c6)C(=O)C(C)(C)[C@@H]5CC[C@]43C)[C@@H]12 then?
-- reply 21.8% (inactive)

-- ask For CN(C)c1cccc2[nH]c(-c3[nH]ncc3Nc3ccnc(N)n3)nc12 then?
-- reply -19.6% (active)

-- ask For COc1ccc2c(c1)c(-c1nc(-c3cn(C)c4ncccc34)cs1)cn2CCN then?
-- reply 77.1% (inactive)

-- ask For COc1cc2ncnc(Nc3ccc(Oc4ccnc(C)c4)c(C)c3)c2cc1NC(=O)CC1CCSS1 (centres undefined) then?
-- reply -50.7% (active)

-- ask For COc1cccc(-c2nn(-c3ccccc3)cc2-c2ccnc(NCCCNS(=O)(=O)c3ccccc3)c2)c1 then?
-- reply 64.3% (inactive)

---

Tested on: SF-295 CNS
Assay: NCI-60 one-dose screen, 48 h (100 = growth as untreated, 0 = no growth, -100 = all killed)
Conditions: 10 µM unless noted
This is part of a sample that, as a whole, favours compounds with a hit. Of some 83,000 tested, about 20% had one in any assay.
Below, each entry is listed with its recorded growth.
Quick reminder: number only, in %, skip the unit.

O=C(O)c1cccc2c1C(=O)N(c1ccc3c(c1)Cc1ccccc1-3)C2=O: 121
CCOC(=O)N1CCN(CCCCOc2ccc(C(C)(C)CC)cc2)CC1: 98.4
O=C(/C=C/c1ccc2ccccc2c1)Nc1ncc(Cc2ccccc2)s1: 36.8
Cc1cc(N(CCCNc2ccnc3cc(Cl)ccc23)Cc2ccco2)nc(N2CCOCC2)n1: 62.7
COc1cccc(-c2nn(-c3ccccc3)cc2-c2ccnc(NCCCNS(=O)(=O)c3ccc(C(F)(F)F)cc3)c2)c1: 14.5

-- ask Looking for the measured growth of Cn1c(=O)c2c(ncn2CC(=O)Nc2ccc(S(N)(=O)=O)cc2)n(C)c1=O , can you help?
-- reply 103

-- ask For CCN(CC)CCCCCNc1cc(OC(=O)c2ccccc2)cc2cccnc12 then?
-- reply 110

-- ask For CCN(CC)C(=O)CCCCCn1c2ccccc2c2c3c(c4c5ccccc5[nH]c4c21)C(=O)N(O)C3=O then?
-- reply 62.5

-- ask For Oc1ccccc1/C=N\NC(=S)Nc1ccc(F)cc1 then?
-- reply 11.6

-- ask For Cc1ccsc1-c1ccc2c(c1)COC2(CCCN(C)C)c1ccc(F)cc1 (centres undefined) then?
-- reply 57.1

-- ask For COc1ccc(NC(=S)N/N=C/c2ccccc2SSCCC(=O)OC[C@H]2O[C@H](O)[C@H](O)[C@@H](O)[C@@H]2O)cc1 then?
-- reply 59.1

-- ask For COc1cccc(-c2nn(-c3ccccc3)cc2-c2ccnc(NCCCN)c2)c1 then?
-- reply 44.7

-- ask For COC(=O)[C@]12CC[C@@H](C)[C@H](C)[C@@H]1C1=CC(=O)[C@@H]3[C@@]4(C)C[C@@H](OC(C)=O)[C@H](OC(C)=O)[C@@](C)(COC(C)=O)[C@@H]4C(=O)C[C@@]3(C)[C@]1(C)CC2 then?
-- reply 51.6

---

Test system: MALME-3M melanoma
Test: NCI-60 one-dose screen, 48 h
Settings: 10 µM unless noted
This is part of a sample that, as a whole, favours compounds with a hit. Of some 83,000 tested, about 20% had one in any assay. Activity calls are given as the source filed them. How the source made its calls: active means growth percent below 10; inactive means the rest.
Your response should consist of one outcome taken from active, inactive

Field: example entries. Status: answers known.
CCCCC[C@H]1C/C=C2/C(=O)C=C[C@@H]2C/C=C\CCCC(=O)O[C@@H](CCCCC)C/C=C2/C(=O)C=C[C@@H]2C/C=C\CCCC(=O)O1: active
Brc1cnc2[nH]cc(-c3nnc(-c4ccccc4)o3)c2c1: inactive
Nc1c(C(=O)Nc2c(Cl)cccc2Cl)sc2nc3c(cc12)CCCC3: inactive
CC(Cc1ccco1)C(=O)NC(N)=O (stereo not drawn): inactive
Cc1ccc(NC2CC(=O)N(c3c(C)cc(C)cc3C)C2=O)c(C)c1 (stereo not drawn): inactive

Pending compound:
-- ask Name the outcome recorded for COc1cc2ncnc(Nc3ccc(Oc4ccnc(C)c4)c(C)c3)c2cc1NC(=O)CC1CCSS1 (stereo not drawn) in the assay.
-- reply active

---

Below, each entry is listed with its recorded growth.
Tested on: A498 renal
Assay: NCI-60 one-dose screen, 48 h (100 = growth as untreated, 0 = no growth, -100 = all killed)
Settings: 10 µM unless noted
About 83,000 compounds went through this panel and 20% of them were active in at least one assay; those are over-represented in the sample as a whole.
Quick reminder: number only, in %, skip the unit.

COC1=C(Br)C(=O)C(OC)=C(Br)C1=O: 128

-- ask Looking for the measured growth of CCNCCCn1c2c(c3ccc([N+](=O)[O-])cc3c1=O)C(=O)c1cc(OC)cnc1-2 , can you help?
-- reply -89.2

-- ask For CSc1ccc(N(C)c2nc(C)nc3c2CCC3)cc1 then?
-- reply -8.39

-- ask For C=C1C(=O)O[C@H]2[C@H]1CC/C(COC(=O)NCc1c[nH]c3ccccc13)=C\CC[C@@]1(C)O[C@@H]21 then?
-- reply 102

-- ask For COc1ccc(NC(=S)N/N=C/c2ccccc2SSCCC(=O)OC[C@H]2O[C@H](O)[C@H](O)[C@@H](O)[C@@H]2O)cc1 then?
-- reply 93.4
